System: SNB75
Assay: Loewe synergy score (Combenefit); higher = more synergy; extreme values may be limits of the assay
Settings: exposure time: 72 h
Short version: Loewe synergy score at least 1 is 1, less is 0.

compound	assigned_label
Nc1ccn([C@@H]2O[C@H](CO)[C@@H](O)C2(F)F)c(=O)n1 [Gemcitabine] + C=CCc1cccc(/C=N/NC(=O)CN2CCN(Cc3ccccc3)CC2)c1O [PAC-1]	0
CO[C@H]1C[C@@H]2CC[C@@H](C)[C@@](O)(O2)C(=O)C(=O)N2CCCC[C@H]2C(=O)O[C@H]([C@H](C)C[C@@H]2CC[C@@H](O)[C@H](OC)C2)CC(=O)[C@H](C)/C=C(\C)[C@@H](O)[C@@H](OC)C(=O)[C@H](C)C[C@H](C)/C=C/C=C/C=C/1C [Rapamycin] + C[C@@H](Oc1cc(-c2cnn(C3CCNCC3)c2)cnc1N)c1c(Cl)ccc(F)c1Cl [Crizotinib]	1
CC(=O)O[C@@]12CO[C@@H]1C[C@H](O)[C@@]1(C)C(=O)[C@H](O)C3=C(C)[C@@H](OC(=O)[C@H](O)[C@@H](NC(=O)OC(C)(C)C)c4ccccc4)C[C@@](O)([C@@H](OC(=O)c4ccccc4)[C@H]21)C3(C)C [Docetaxel] + N#CC(c1ccnc(NCCc2cccnc2)n1)c1nc2ccccc2s1 [AS601245]	1

INPUT: Please check the record C#Cc1cccc(Nc2ncnc3cc(OCCOC)c(OCCOC)cc23)c1 [Erlotinib] + N#CC(c1ccnc(NCCc2cccnc2)n1)c1nc2ccccc2s1 [AS601245] and state if its Loewe synergy score is at or above 1.
OUTPUT: 0

INPUT: Here is the next compound: CC(=O)O[C@@]12CO[C@@H]1C[C@H](O)[C@@]1(C)C(=O)[C@H](O)C3=C(C)[C@@H](OC(=O)[C@H](O)[C@@H](NC(=O)OC(C)(C)C)c4ccccc4)C[C@@](O)([C@@H](OC(=O)c4ccccc4)[C@H]21)C3(C)C [Docetaxel] + CCC(=O)N1CCN(c2ccc(-n3c(=O)ccc4cnc5ccc(-c6cnc7ccccc7c6)cc5c43)cc2C(F)(F)F)CC1 [Torin1]
OUTPUT: 1

INPUT: Another compound to check: CC(=O)O[C@@]12CO[C@@H]1C[C@H](O)[C@@]1(C)C(=O)[C@H](O)C3=C(C)[C@@H](OC(=O)[C@H](O)[C@@H](NC(=O)OC(C)(C)C)c4ccccc4)C[C@@](O)([C@@H](OC(=O)c4ccccc4)[C@H]21)C3(C)C [Docetaxel] + O=c1[nH]c2ccccc2n1C1CCN(Cc2ccc(-c3[nH]c4cc5ncnc5cc4nc3-c3ccccc3)cc2)CC1 [Akt inhibitor VIII]
OUTPUT: 0

INPUT: Also, C=CCc1cccc(/C=N/NC(=O)CN2CCN(Cc3ccccc3)CC2)c1O [PAC-1] + CCOc1nc(NC(=O)Cc2cc(OC)ccc2OC)cc(N)c1C#N [JNK inhibitor VIII] please.
OUTPUT: 1
